These measurements were taken from patent US12018023B2.

The entries below are paired with their reported pIC50.
- target: IDH1^R132C (Homo sapiens, UniProt O75874, R132C)
- Sequence (O75874 whole entry R132C): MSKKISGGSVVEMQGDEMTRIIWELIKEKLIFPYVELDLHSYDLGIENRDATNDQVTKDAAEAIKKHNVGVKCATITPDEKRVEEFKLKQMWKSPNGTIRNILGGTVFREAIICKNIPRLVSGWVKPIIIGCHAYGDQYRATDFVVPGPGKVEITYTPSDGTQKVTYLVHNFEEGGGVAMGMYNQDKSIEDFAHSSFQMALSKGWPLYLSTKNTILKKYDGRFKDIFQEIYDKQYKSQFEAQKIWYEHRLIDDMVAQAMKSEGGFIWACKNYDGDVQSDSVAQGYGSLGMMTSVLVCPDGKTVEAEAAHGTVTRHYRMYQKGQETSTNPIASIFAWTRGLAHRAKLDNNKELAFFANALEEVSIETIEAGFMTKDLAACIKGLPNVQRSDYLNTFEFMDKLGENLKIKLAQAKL
- assay.summary: NADPH depletion assay, IDH1 R132C
- Protocol: IDH mutated enzyme activity converting alpha-ketoglutarate to 2-hydroxyglutaric acid is measured using a NADPH depletion assay. In the assay the remaining cofactor is measured at the end of the reaction with the addition of a catalytic excess of diaphorase and resazurin, to generate a fluorescent signal in proportion to the amount of NADPH remaining. […]
pIC50 here: minus log base 10 of the concentration, concentration in moles per litre.

Examples with answers:
Cc1nc(N[C@@H](C)c2ccc(CN3CCC(F)(F)CC3)cc2)nc2c1ccc(=O)n2CC(C)C : 6.03
C[C@H](Nc1ncc2ccc(=O)n(CC(C)(C)C)c2n1)c1ccc(O)cc1 : 5.88
C=CC(=O)N1CCN(C(=O)c2ccc([C@H](C)Nc3ncc4ccc(=O)n(CC(C)(C)C)c4n3)cc2F)CC1 : 6.67
C[C@H](Nc1ncc2ccc(=O)n(CC(F)(F)F)c2n1)c1ccc(Cl)cc1 : 5.81

For the compound C[C@H](Nc1ncc2ccc(=O)n([C@@H](C)C(C)(C)C)c2n1)c1ccc(CN2CCCC(F)(F)C2)cc1 , the measured pIC50 on IDH1^R132C (Homo sapiens, UniProt O75874, R132C) was 7.66

For the compound C[C@H](Nc1ncc2ccc(=O)n(CC(C)(C)O)c2n1)c1ccc(CN2CCC(F)(F)CC2)cc1 , the measured pIC50 on IDH1^R132C (Homo sapiens, UniProt O75874, R132C) was 5.93

* * *

- target: IDH1^R132C (Homo sapiens, UniProt O75874, R132C)
- assay.summary: NADPH depletion assay, IDH1 R132C
assay.metric: IC50 (nM)
Kindly answer with a numeric value in nM, unit omitted.

C[C@H](Nc1ncc2ccc(=O)n(CC(C)(C)C)c2n1)c1ccc(Oc2ccccc2)cc1 [cpd 49] : 67
C[C@H](Nc1ncc2ccc(=O)n(CC(C)(C)C)c2n1)c1ccc(C(=O)N2CCC(F)(F)CC2)cc1 [cpd 83] : 196
C=CC(=O)N1CCN(Cc2ccc([C@H](C)Nc3ncc4ccc(=O)n([C@@H](C)C(F)(F)F)c4n3)cc2)CC1 [cpd 169] : 179
C[C@H](Nc1ncc2ccc(=O)n(CC(C)(C)C)c2n1)c1ccc(CN2CCC(F)(F)CC2)cc1 [cpd 105] : 55
CC(C#N)n1c(=O)ccc2cnc(N[C@@H](C)c3ccc(CN4CCCC(F)(F)C4)cc3)nc21 (stereo partly drawn) [cpd 64] : 133
CC(Nc1ncc2ccc(=O)n(Cc3ccccc3)c2n1)c1ccc(CN2CCC(F)(F)CC2)cc1 (stereo not drawn) [cpd 96] : 420

Looking up COC(=O)c1ccc([C@H](C)Nc2ncc3ccc(=O)n(Cc4cc(F)cc(F)c4)c3n2)cc1 [cpd 7] , I see its IC50 listed as 1410

* * *

- target: IDH1^R132H homodimer enzyme (Homo sapiens, UniProt O75874, R132H)
- Sequence (O75874 whole entry R132H): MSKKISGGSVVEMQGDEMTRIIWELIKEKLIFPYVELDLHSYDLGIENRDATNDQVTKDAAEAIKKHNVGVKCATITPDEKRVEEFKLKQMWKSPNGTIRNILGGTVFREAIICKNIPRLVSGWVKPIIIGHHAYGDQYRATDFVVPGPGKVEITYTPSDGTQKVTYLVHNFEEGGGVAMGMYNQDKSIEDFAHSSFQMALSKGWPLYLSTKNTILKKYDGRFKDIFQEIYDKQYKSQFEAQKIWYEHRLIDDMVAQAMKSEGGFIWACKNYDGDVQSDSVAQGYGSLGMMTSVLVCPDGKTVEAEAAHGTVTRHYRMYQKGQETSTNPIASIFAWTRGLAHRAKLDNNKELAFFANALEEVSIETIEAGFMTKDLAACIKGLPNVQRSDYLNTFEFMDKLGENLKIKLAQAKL
- assay.summary: NADPH depletion assay, IDH1 R132H
The entries below are paired with their reported pIC50.
pIC50 here: minus log base 10 of the concentration, concentration in moles per litre.

C[C@H](Nc1ncc2ccc(=O)n(Cc3ccc(F)c(F)c3)c2n1)c1ccc(Cl)cc1 [cpd 23] : 5.68
C[C@H](Nc1ncc2ccc(=O)n(CC(F)(CF)CF)c2n1)c1ccc(CN2CCC(F)(F)CC2)cc1 [cpd 107] : 6.14
C[C@@H]1CN(Cc2ccc([C@H](C)Nc3ncc4ccc(=O)n(CC(C)(C)C)c4n3)c(F)c2)C[C@H](C)O1 [cpd 151] : 7.02

Looking up C=CC(=O)N1CCN(c2ccc([C@H](C)Nc3ncc4ccc(=O)n([C@@H](C)C(C)C)c4n3)cn2)CC1 [cpd 181] , I see its pIC50 listed as 6.76

Looking up C=CC(=O)N1CCN([C@@H](CC)c2ccc(C3(Nc4ncc5ccc(=O)n(C(C)C)c5n4)CC3)cc2)CC1 (single isomer, unassigned) [cpd 249] , I see its pIC50 listed as 8.30

* * *

- target: IDH2^R172K (Homo sapiens, UniProt P48735, R172K)
- assay.summary: NADPH depletion assay, IDH2 R172K
- Protocol: IDH mutated enzyme activity converting alpha-ketoglutarate to 2-hydroxyglutaric acid is measured using a NADPH depletion assay. In the assay the remaining cofactor is measured at the end of the reaction with the addition of a catalytic excess of diaphorase and resazurin, to generate a fluorescent signal in proportion to the amount of NADPH remaining. […]
The entries below are paired with their reported IC50.
Kindly answer with a numeric value in µM, unit omitted.

Looking up C=CC(=O)N1CCN(Cc2ccc([C@H](C)Nc3ncc4ccc(=O)n([C@@H](C)CF)c4n3)cc2)CC1 , I see its IC50 listed as 0.248

Looking up CC(C)Cn1c(=O)ccc2cnc(N[C@@H](C)c3ccc(Cl)cc3)nc21 , I see its IC50 listed as 6.68

Looking up C[C@H](Nc1ncc2ccc(=O)n(CC(C)(C)C)c2n1)c1ccc(CN2CCC(F)(F)CC2)cc1 , I see its IC50 listed as 4.73

Looking up C=CC(=O)N1CCN([C@H](CC2CC2)c2ccc(C3(Nc4ncc5ccc(=O)n(C(C)C)c5n4)CC3)cc2)CC1 (single isomer, unassigned) , I see its IC50 listed as 0.02

* * *

The entries below are paired with their reported IC50.
- target: IDH1^R132H homodimer enzyme (Homo sapiens, UniProt O75874, R132H)
- assay.summary: NADPH depletion assay, IDH1 R132H
Kindly answer with a numeric value in nM, unit omitted.

C[C@H](Nc1ncc2ccc(=O)n(Cc3c(F)cccc3F)c2n1)c1ccc(C(=O)N2CCC(F)(F)CC2)cc1 : 207

# evaluate next
Looking up Cc1nc(N[C@@H](C)c2ccc(CN3CCC(F)(F)CC3)cc2)nc2c1ccc(=O)n2CC(C)C , I see its IC50 listed as 1300

* * *

- target: IDH2^R172K (Homo sapiens, UniProt P48735, R172K)
- Sequence (P48735 40-452 R172K): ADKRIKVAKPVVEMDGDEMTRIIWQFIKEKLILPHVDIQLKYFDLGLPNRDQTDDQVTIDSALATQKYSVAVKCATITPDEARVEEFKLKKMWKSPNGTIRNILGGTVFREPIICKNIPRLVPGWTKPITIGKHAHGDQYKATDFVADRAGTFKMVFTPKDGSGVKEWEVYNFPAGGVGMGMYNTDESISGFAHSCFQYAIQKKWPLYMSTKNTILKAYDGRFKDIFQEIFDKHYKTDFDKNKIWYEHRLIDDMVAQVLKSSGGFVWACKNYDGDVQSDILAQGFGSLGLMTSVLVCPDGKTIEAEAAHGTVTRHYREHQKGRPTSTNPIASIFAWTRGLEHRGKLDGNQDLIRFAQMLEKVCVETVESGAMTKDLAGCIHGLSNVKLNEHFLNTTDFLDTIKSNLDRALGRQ
- assay.summary: NADPH depletion assay, IDH2 R172K
assay.metric: pIC50
pIC50 here: minus log base 10 of the concentration, concentration in moles per litre.

Examples with answers:
CC(C)[C@H](C)n1c(=O)ccc2cnc(N[C@@H](C)c3ccc(CN4CCC(F)(F)CC4)c(F)c3)nc21 [cpd 67] : 5.13
CC(Nc1ncc2ccc(=O)n(Cc3ccccc3)c2n1)c1ccc(CN2CCC(F)(F)CC2)cc1 (centres unmarked) [cpd 96] : 5.30

Looking up C=CC(=O)N1CCN(C(CC2CC2)c2ccc([C@H](C)Nc3ncc4ccc(=O)n(C(C)C)c4n3)cc2)CC1 (some centres unmarked) [cpd 220] , I see its pIC50 listed as 7.82

Looking up CC(C)[C@H](C)n1c(=O)ccc2cnc(N[C@@H](C)c3ccc(-c4ccccc4C#N)cc3)nc21 [cpd 165] , I see its pIC50 listed as 5.25

Looking up CC(C)[C@H](C)n1c(=O)ccc2cnc(N[C@@H](C)c3ccc(N4CCN(C(=O)OCc5ccccc5)CC4)c(F)c3)nc21 [cpd 178] , I see its pIC50 listed as 5.30

Looking up C[C@H](Nc1ncc2ccc(=O)n(CC3CCC3)c2n1)c1ccc(CN2CCC(F)(F)CC2)cc1 [cpd 109] , I see its pIC50 listed as 5.25

Looking up CC[C@@H](C)n1c(=O)ccc2cnc(N[C@@H](C)c3ccc(CN4CCCC(F)(F)C4)cc3)nc21 [cpd 149] , I see its pIC50 listed as 5.48

Looking up CC(C)[C@H](C)n1c(=O)ccc2cnc(N[C@@H](C)c3ccc(Br)cc3)nc21 [cpd 163] , I see its pIC50 listed as 5.18

Looking up C=CC(=O)N1CCN(C(CC)c2ccc([C@H](C)Nc3ncc4ccc(=O)n(CC)c4n3)cc2)CC1 (some centres unmarked) [cpd 214] , I see its pIC50 listed as 7.82

Looking up C=CC(=O)N1CCN(Cc2ccc([C@H](C)Nc3ncc4ccc(=O)n([C@@H](C)CO)c4n3)cc2)CC1 [cpd 199] , I see its pIC50 listed as 6.14

Looking up C[C@H](Nc1ncc2ccc(=O)n(CC(C)(C)C)c2n1)c1ccc(-c2ccsc2)cc1 [cpd 133] , I see its pIC50 listed as 5.30

Looking up C[C@H](Nc1ncc2ccc(=O)n(CC3CC3)c2n1)c1ccc(Cl)cc1 [cpd 20] , I see its pIC50 listed as 5.30

Looking up CCn1c(=O)ccc2cnc(N[C@@H](C)c3ccc(Cl)cc3)nc21 [cpd 14] , I see its pIC50 listed as 5.24

Looking up CCC(C)n1c(=O)ccc2cnc(N[C@@H](C)c3ccc(CN4CCCC(F)(F)C4)cc3)nc21 (some centres unmarked) [cpd 61] , I see its pIC50 listed as 5.30
